Test system: NCI-H522
Experiment: NCI tumour cell line growth inhibition, 48 h
Hit rate of the full screen: of about 53,000 sequences, about 4,900 (9.2%) were called active. The entries come from a sample that favours actives as a whole. Measured potencies and affinities stand elsewhere.
Reported metric: GI50 (µM)
Give bare numbers, in µM.

Items follow; give GI50 for each.
1. [Bis(aminomethyl)dimethylsilane]dichloroplatinum (II), CHEMBL2146201
2. mu-(1,7-nanodiamine-N,N')bis-(cis-aminedichloroplatimum (II)), CHEMBL2146215
3. [Bis(aminomethyl)pentamethylenesilane]tetrachloropaltinum(IV), CHEMBL2146204
4. [Bis(aminomethyl)tetramethylenesilane]tetrachloropaltinum(IV), CHEMBL2146189

Result:
4.94
7.94
0.776
2.18

Items follow; give GI50 for each.
1. CISPLATIN, CHEMBL11359
2. [Bis(aminomethyl)tetramethylenesilane]dichloropaltinum(II), CHEMBL2146205

Result:
2.03
7.62
